- Tested on: Candida albicans
- assay: Antifungal activity against cdr1/cdr1/cdr2/cdr2 deficient Candida albicans STY31 after 48 hrs
- Type: functional
- setup conditions: STY31, 48 h
Flag rule - MIC50 less than 0.4 µg/mL flags true; the remaining entries get false.

Example entries begin here.
INSERT INTO assay_data (molecule, group_label) VALUES
  ('CC(=O)N1CCN(c2ccc(OCC3COC(Cn4ccnc4)(c4ccc(Cl)cc4Cl)O3)cc2)CC1 (stereo unspecified)', 'true'),
  ('CCC(C)n1ncn(-c2ccc(N3CCN(c4ccc(OCC5COC(Cn6cncn6)(c6ccc(Cl)cc6Cl)O5)cc4)CC3)cc2)c1=O (stereo unspecified)', 'true'),
  ('CC/N=c1\cc2oc3cc(NCC)c(C)cc3c(-c3ccccc3C(=O)OCC)c-2cc1C.Cl [RHODAMINE 6G HYDROCHLORIDE]', 'false'),
  ('OCCN1CCN(CCCN2c3ccccc3Sc3ccc(C(F)(F)F)cc32)CC1', 'false');

Please turn your attention to the following entry.
Please let me know if C[C@@H]1[C@H](O)[C@@H](C)/C=C/C=C/C=C/C=C/C=C/C=C/C=C/[C@H](O[C@@H]2O[C@H](C)[C@@H](O)[C@H](N)[C@@H]2O)C[C@@H]2O[C@](O)(C[C@@H](O)C[C@@H](O)[C@H](O)CC[C@@H](O)C[C@@H](O)CC(=O)O[C@H]1C)C[C@H](O)[C@H]2C(=O)O shows MIC50 below 0.4 µg/mL.
false

Data provenance is ChEMBL document CHEMBL1649166.
